Just for reference, the RNAGym collection of RNA variant scans (doi:10.7554/elife.80360) is where these values come from.

B1: CPEB3 Ribozyme (parent)
chain: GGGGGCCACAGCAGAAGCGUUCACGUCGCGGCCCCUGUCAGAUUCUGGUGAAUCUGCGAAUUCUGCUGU

# Variants of: B1
# method.notes: self-cleavage, relative activity (ratio to wild type); higher = more cleavage; co-transcriptional
self-cleavage values by entry

Worked set:
[
  {
    "variant.name": "U64C G65U",
    "self-cleavage": 0.699
  },
  {
    "variant.name": "C32U G37C",
    "self-cleavage": 0.241
  },
  {
    "variant.name": "G30U C32G",
    "self-cleavage": 0.216
  },
  {
    "variant.name": "A40C U44A",
    "self-cleavage": 0.417
  }
]

Q) Quick check: self-cleavage of G47U U67A ?
A) 0.99

Q) Same read-out for A13U C32U ?
A) 0.862

Q) Same read-out for G17C A52C ?
A) 0.126

Q) Same read-out for G25U G58U ?
A) 0.186

Q) Same read-out for G3C G50C ?
A) 0.0988
